target: farnesol X receptor (FXR) (Homo sapiens, UniProt Q96RI1); construct: endogenous in cells; host or cells: HepG2; test: Farnesol X receptor (FXR) reporter gene assay (dual luciferase) in HepG2 cells; format: cell-based; conditions: dose 10 uM; HepG2 cells, drug treatment 24 hours; firefly/renilla luciferase ratio, Con = 1.00
Sequence (Q96RI1 whole entry): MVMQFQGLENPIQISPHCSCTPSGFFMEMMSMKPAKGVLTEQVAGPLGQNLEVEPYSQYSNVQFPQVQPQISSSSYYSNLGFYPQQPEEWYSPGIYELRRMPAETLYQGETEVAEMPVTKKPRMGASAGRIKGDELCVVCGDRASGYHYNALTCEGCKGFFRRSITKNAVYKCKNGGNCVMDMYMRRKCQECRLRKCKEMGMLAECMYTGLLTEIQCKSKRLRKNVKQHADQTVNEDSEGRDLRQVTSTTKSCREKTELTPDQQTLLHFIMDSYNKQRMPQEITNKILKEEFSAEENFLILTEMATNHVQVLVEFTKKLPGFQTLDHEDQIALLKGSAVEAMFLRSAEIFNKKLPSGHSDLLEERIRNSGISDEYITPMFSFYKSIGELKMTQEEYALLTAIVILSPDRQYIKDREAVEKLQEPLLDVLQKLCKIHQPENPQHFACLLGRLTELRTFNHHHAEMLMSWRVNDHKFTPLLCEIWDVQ
measured-attribute: fold induction at 10 µM

Worked examples, 5 compounds total:
Cc1onc(-c2c(Cl)cccc2Cl)c1COc1ccc(/C=C/C(=O)N[C@@H](C)C(=O)O)cc1 ... 1.71
CC(C)c1onc(-c2c(Cl)cccc2Cl)c1COc1ccc(/C=C/C(=O)N[C@H](C(=O)O)C(C)C)cc1 ... 8.91
Cc1onc(-c2c(Cl)cccc2Cl)c1COc1ccc(/C=C/C(=O)N[C@H](C)C(=O)O)cc1 ... 1.28
CCOC(=O)CNC(=O)/C=C/c1ccc(OCc2ccc(OC(F)(F)F)cc2)cc1 ... 1.1
COC(=O)[C@@H](C)NC(=O)/C=C/c1ccc(OCc2c(-c3c(Cl)cccc3Cl)noc2C)cc1 ... 2

[1] Cc1onc(-c2c(Cl)cccc2Cl)c1COc1ccc(/C=C/C(=O)N[C@@H](Cc2ccccc2)C(=O)O)cc1
[2] Cc1onc(-c2c(Cl)cccc2Cl)c1COc1ccc(/C=C/C(=O)N[C@H](C(=O)O)C(C)C)cc1
Endpoint returns whichever of 1 and 2 has the numerically higher fold induction at 10 µM. Answer = label.
1

[A] O=C(O)CNC(=O)/C=C/c1ccc(OCc2cccc(OC(F)(F)F)c2)cc1
[B] Cc1onc(-c2c(Cl)cccc2Cl)c1COc1ccc(/C=C/C(=O)NCC(=O)O)cc1
Endpoint returns whichever of A and B has the numerically higher fold induction at 10 µM. Answer = label.
B
(B: 1.93, A: 1.19)

[1] CCOC(=O)[C@@H](NC(=O)/C=C/c1ccc(OCc2c(-c3c(Cl)cccc3Cl)noc2C)cc1)C(C)C
[2] CCOC(=O)CNC(=O)/C=C/c1ccc(O)cc1
I would appreciate it if you could say which entry, 1 or 2 , has the lower fold induction at 10 µM value. Answer = label.
2
(2: 1.22, 1: 1.89)

----------
biological target: farnesol X receptor (FXR) (Homo sapiens); construct: endogenous in cells; host or cells: HepG2; test: Farnesol X receptor (FXR) reporter gene assay (dual luciferase) in HepG2 cells; type: cell-based; conditions: dose 10 uM; HepG2 cells, drug treatment 24 hours; firefly/renilla luciferase ratio, Con = 1.00
measured-attribute: fold induction at 10 µM

Worked examples, 4 compounds total:
CCOC(=O)[C@H](C)NC(=O)/C=C/c1ccc(OCc2c(-c3c(Cl)cccc3Cl)noc2C)cc1 ... 1.26
Cc1onc(-c2c(Cl)cccc2Cl)c1COc1ccc(/C=C/C(=O)NCCC(=O)O)cc1 ... 3.04
CCOC(=O)CNC(=O)/C=C/c1ccc(OCc2ccccc2)cc1 ... 1.22
CCOC(=O)CNC(=O)/C=C/c1ccc(OCc2cc(F)c(F)cc2F)cc1 ... 1.44

[I] O=C(O)CNC(=O)/C=C/c1ccc(OCc2ccc(OC(F)(F)F)cc2)cc1
[II] O=C(O)CNC(=O)/C=C/c1ccc(O)cc1 [KS-013, (E)-(3-(4-hydroxyphenyl)acryloyl)glycine]
I would appreciate it if you could say which entry, I or II , has the lower fold induction at 10 µM value. Answer = label.
II
(II: 1.46, I: 2.65)

This collection of values is drawn from patent US12552755B2.
